test system: mouse red blood cells (RBCs); test: Hemolysis assay; format: cell-based; settings: mouse RBC, up to 250 μg/mL, 1 h, 37 °C, PBS pH 7.4; 0.1% Triton X-100 = 100%; data not shown
Residues, ends and D or L forms follow the SMILES beside them.
MEASURED_PARAMETER: % hemolysis

Study these solved cases before continuing.
>  <MOLECULE>
N=C(N)NCCC[C@H](NC(=O)[C@@H](N)Cc1c[nH]c2ccccc12)C(=O)N[C@H](Cc1ccccc1C(F)(F)F)C(=O)N[C@@H](CCCNC(=N)N)C(=O)N[C@@H](Cc1c[nH]c2ccccc12)C(N)=O [S-2] (HELM PEPTIDE1{W.R.[O=C([C@@H](Cc1ccccc1C(F)(F)F)N[*:1])[*:2]].R.W.[am]}$$$$V2.0)

>  <ASSAYED_SYSTEM>
mouse red blood cells (RBCs)

>  <MEASURED_PARAMETER>
% hemolysis

>  <RESULT>
< 5%

$$$$
>  <MOLECULE>
N=C(N)NCCC[C@H](NC(=O)[C@@H](N)Cc1c[nH]c2ccccc12)C(=O)N[C@H](Cc1cccc2ccccc12)C(=O)N[C@@H](CCCNC(=N)N)C(=O)N[C@@H](Cc1c[nH]c2ccccc12)C(N)=O [S-3, Trp-Arg-(D-1-Nal)-Arg-Trp-CONH2] (HELM PEPTIDE1{W.R.[O=C([C@@H](Cc1cccc2ccccc12)N[*:1])[*:2]].R.W.[am]}$$$$V2.0)

>  <ASSAYED_SYSTEM>
mouse red blood cells (RBCs)

>  <MEASURED_PARAMETER>
% hemolysis

>  <RESULT>
< 5%

$$$$

Prompt: // % hemolysis lookup, key: N=C(N)NCCC[C@H](NC(=O)CCCCCCCNC(=O)[C@H](CCCNC(=N)N)NC(=O)[C@@H](N)Cc1c[nH]c2ccccc12)C(=O)N[C@@H](Cc1c[nH]c2ccccc12)C(N)=O [S-5, Trp-Arg-(8-AOA)-Arg-Trp-CONH2] (HELM PEPTIDE1{W.R.[O=C(CCCCCCCN[*:1])[*:2]].R.W.[am]}$$$$V2.0)
Completion: < 5%
